# System: HCC-2998 colon
# measurement-description: NCI-60 one-dose screen, 48 h
# test-conditions: 10 µM unless noted
This is part of a sample that, as a whole, favours compounds with a hit. Of some 83,000 tested, about 20% had one in any assay. The source made the active and inactive calls. Rule for the calls: active = growth percent below 10; inactive = the rest.
Give your call using only these classes: active, inactive

Example entries and their recorded answers appear below.
compound: COC(=O)c1cc(O)c2c(c1C(=O)OC)C[C@H]1[C@@H]3CC=C4C[C@@H](O)CC[C@]4(C)[C@H]3CC[C@]21C
target-system: HCC-2998 colon
discrete-label: inactive
//
compound: CC1(C)CC[C@]23CC[C@]4(C)[C@H](CC[C@@H]5[C@@]6(C)C/C(=C/c7ccncc7)C(=O)C(C)(C)[C@@H]6CC[C@]54C)[C@H]2[C@H]1OC3=O
target-system: HCC-2998 colon
discrete-label: inactive
//
compound: CC(=O)OC[C@]12CC[C@@H](C(=O)CBr)[C@@H]1[C@H]1CC[C@@H]3[C@@]4(C)CCCNC(C)(C)[C@@H]4CC[C@@]3(C)[C@]1(C)CC2
target-system: HCC-2998 colon
discrete-label: active

Prompt: Just curious, what result did `C=C(C)[C@@H]1CC[C@]2(C(=O)OC)CC[C@]3(C)[C@H](CC[C@@H]4[C@@]5(C)CC/C(=N\OCCC(=NCCC#N)NOCCC#N)C(C)(C)[C@@H]5CC[C@]43C)[C@@H]12` get here?
Completion: inactive

Prompt: Test call, this compound: `CN(Cc1cccc(C(F)(F)F)c1)C(=O)[C@@H](CC(=O)N1CCC(N2CCCCC2)CC1)N1C(=O)[C@@H](N2C(=O)OC[C@@H]2c2ccccc2)[C@H]1/C=C/c1ccccc1`
Completion: inactive

Prompt: Assay result, entry `NC(=S)Cc1ccccc1` — outcome?
Completion: inactive

Prompt: Please let me know the test result on file for `N=C(N)c1ccc(-c2ccc(-c3ccc(-c4cccs4)s3)s2)cc1F` .
Completion: inactive

Prompt: I would be grateful if you could indicate the recorded call for `O=C1NC(=O)C(Cc2ccccc2)(Cc2ccccc2)N1` .
Completion: inactive

Prompt: Outcome? `CCCc1cc2cc(-n3nc(C)c4c3CC(C)(C)CC4=O)cc(NC3CCSCC3)c2c(=O)[nH]1`
Completion: inactive

Prompt: What was the test verdict on `Brc1ccc2c(c1)CN(C1CCCCC1)CO2` ?
Completion: inactive

Prompt: Each compound tested received a call. Report the one for `O=C(N/N=C/c1ccc([N+](=O)[O-])cc1)c1ccc(Br)o1` .
Completion: inactive

Prompt: Please let me know the test result on file for `COc1cc(/C=C/C(=O)/C=C/c2ccc(-n3ccnc3)cc2)ccc1O` .
Completion: inactive

Prompt: Hi, do you know how `C=C(C)[C@@H]1CC[C@]2(COCCC#N)CC[C@]3(C)[C@H](CC[C@@H]4[C@@](C)(CCCNCCC#N)[C@H](C(=C)C)CC[C@]43C)[C@@H]12` came out in this test?
Completion: inactive

Prompt: Per the assay record, what outcome was assigned to `Cn1cc(-c2noc(-c3cn(C)c4ncc(F)cc34)n2)c2ccccc21` ?
Completion: inactive

Prompt: What classification did `O=C(O)c1cn(C2CC2)c2cc(N3CCN(Cc4c(O)ccc5ccccc45)CC3)c(F)cc2c1=O` end up with in this test?
Completion: inactive

Prompt: Please indicate how the test categorized `O=C(O)c1cn(C2CC2)c2cc(N3CCN(Cc4cc(Cl)ccc4O)CC3)c(F)cc2c1=O` .
Completion: inactive

Prompt: Hello, I am checking results. What call was entered for `c1coc2occoc=2o1` ?
Completion: inactive

Prompt: Kindly provide the recorded test outcome for the following compound: `Cc1ccc(-c2cn(C/C=C3\C=CN(S(=O)(=O)c4ccccc4)CC3)nn2)cc1`
Completion: inactive

----------
# Tested on: SK-MEL-28 melanoma
# measurement-description: NCI-60 one-dose screen, 48 h
# test-conditions: 10 µM unless noted
Compounds without any hit were thinned out: in the full panel of roughly 83,000, 20% have a hit. Activity calls are given as the source filed them. Rule for the calls: active = growth percent below 10; inactive = the rest.
Entry note: the call must match one of active, inactive

Would you please look over these solved cases?
molecule: COCCCNc1nc(NC(=O)c2cc(Br)cc(C(F)(F)F)c2)cc(-c2cccnc2)n1
discrete-label: inactive

molecule: CCOC(=O)C(C(C)=O)c1nc2sc3cc(Cl)c(Cl)cc3n2c(=O)c1C#N (centres undefined)
discrete-label: inactive

molecule: Cc1cc(-c2ccc(N=Nc3c(S(=O)(=O)O)cc4cc(S(=O)(=O)O)cc(N)c4c3O)c(C)c2)ccc1N=Nc1cc(S(=O)(=O)O)c2ccccc2c1O
discrete-label: inactive

molecule: C=C(C)[C@@H]1CC[C@]2(c3ncc(C)o3)CC[C@]3(C)[C@H](CC[C@@H]4[C@@](C)(CCC#N)[C@H](C(=C)C)CC[C@]43C)[C@@H]12
discrete-label: active

molecule: CCOc1ccc(S(=O)(=O)Nc2ccc3c(c2)N(S(=O)(=O)CC)CCC3)cc1
discrete-label: inactive

molecule: N#CC1C(=O)NC(c2ccccc2[N+](=O)[O-])c2sc3c(F)cccc3c21 (centres undefined)
discrete-label: inactive

molecule: CC[C@@H]1NC(=O)[C@@H]2CCCCN2C(=O)[C@@H]2CCCN2C(=O)[C@@H](NC(=O)[C@H](Cc2cc(F)cc(F)c2)NC(=O)Nc2ccc(C3CC3)cc2F)[C@H](C)OC(=O)[C@@H]2C[C@@H](C)CN2C1=O
discrete-label: inactive

molecule: CCCCC1COc2cccc3c2N1C=C/C3=C\C(=O)n1ccc2ccccc21 (centres undefined)
discrete-label: inactive

Prompt: Query: recorded result category for `Cc1ccc(-n2nc3n(/c2=N\C(=O)NS(=O)(=O)c2ccc(C)cc2)CCN3C2=NCCN2)cc1` in this test
Completion: inactive

Prompt: // param item: CC1Cc2c(Cl)ncnc2N(C)c2ccc(O)cc21 (centres undefined) ; yields the recorded call
Completion: inactive

Prompt: For NC(=O)CC1C=CCC1 (centres undefined) , which call appears in the assay record?
Completion: inactive

Prompt: Query: recorded result category for `COc1ccc(/C=C/C(=C/c2c(O)[nH]c3cc(Br)ccc23)N=O)cc1` in this test
Completion: inactive

----------
# Tested on: OVCAR-5 ovarian
# measurement-description: NCI-60 one-dose screen, 48 h
# test-conditions: 10 µM unless noted
Compounds without any hit were thinned out: in the full panel of roughly 83,000, 20% have a hit. Activity calls are given as the source filed them. Rule for the calls: active = growth percent below 10; inactive = the rest.
The reply should name one outcome from active, inactive

Answered examples (4):
structure-string: C=C(C)[C@@H]1CC[C@]2(C(=O)NCCCN)CC[C@]3(C)[C@H](CC[C@@H]4[C@@]5(C)CC[C@H](O)C(C)(C)[C@@H]5CC[C@]43C)[C@@H]12
discrete-label: active
//
structure-string: CC(C)(C)OC(=O)N1C=C/C(=C\Cn2cc(-c3ccccc3)nn2)CC1
discrete-label: inactive
//
structure-string: C=C(C)[C@@H]1CC[C@]2(COC(=O)c3ccccc3C(=O)O)CC[C@]3(C)[C@H](CC[C@@H]4[C@@]5(C)CC[C@H](OC(=O)c6ccccc6C(=O)O)C(C)(C)[C@@H]5CC[C@]43C)[C@@H]12
discrete-label: inactive
//
structure-string: COc1c(C(C)=O)c(OCCCCOc2c(C(C)=O)c(OC)c3ccoc3c2OC)c(OC)c2occc12
discrete-label: inactive

Prompt: # fetch the recorded call for `CCCN1CC(c2ccc(OC)c(OC)c2)=C(c2cn(C(=O)OCC)c3ccccc23)C1=O` here
Completion: inactive

Prompt: For `CCOC(=O)n1cc(C2=C(c3ccc(OC)c(OC)c3)COC2=O)c2ccccc21` , what call appears in the results of this test?
Completion: inactive

Prompt: # fetch the recorded call for `Cc1ccc(C2=C/C(=C/c3ccc(Br)cc3)C(=O)N2CCc2ccc(S(N)(=O)=O)cc2)cc1` here
Completion: inactive

Prompt: Short answer needed: outcome of this test for `Cc1cc(C)c(O)c(CNCCCCCCNCc2cc(C)cc(C)c2O)c1` ?
Completion: inactive

----------
# Tested on: A498 renal
# measurement-description: NCI-60 one-dose screen, 48 h
# test-conditions: 10 µM unless noted
This is part of a sample that, as a whole, favours compounds with a hit. Of some 83,000 tested, about 20% had one in any assay. Calls of active or inactive are those of the source. The calls were made as follows: active = growth percent below 10; inactive = the rest.
# valid calls are y (active), n (inactive); nothing else

Solved entries:
structure-string: CC1=C/C(=C(\c2cc(C)c(O)c(C(=O)O)c2)c2c(Cl)cccc2Cl)C=C(C(=O)O)C1=O
discrete-label: n

structure-string: Cc1ccc2c(c1)/C(=N\N=C/c1cn(C(C)C)c3ccccc13)C(=O)N2
discrete-label: n

structure-string: CC(=O)Nc1ccc2nc3ccc(NC(C)=O)cc3[n+](-c3ccccc3)c2c1
discrete-label: n

structure-string: Fc1ccc(NC(=S)c2ccccc2)cc1
discrete-label: n

structure-string: O=C(N=c1n(-c2ccccc2)nc2n1CCN2C1=NCCN1C(=O)c1ccc(Cl)cc1)c1ccc(Cl)cc1
discrete-label: n

Prompt: GET /call?item= `CCCCOC(=O)c1c(C)[nH]c(/C=C2\N=C(c3ccc[nH]3)C=C2OC)c1C` returns the recorded outcome of this test.
Completion: y

Prompt: Hello, I am checking results. What call was entered for `O=C(N[C@@H]1CCCc2ccccc21)[C@H](CCC(=O)N1CCN(C2CCCCC2)CC1)N1C(=O)[C@@H](N2C(=O)OC[C@@H]2c2ccccc2)[C@H]1/C=C/c1ccccc1` ?
Completion: n

Prompt: Each molecule tested received a call. Report the one for `CC(C)c1ccc(/C=N/N=C(N)N)cc1` .
Completion: n

Prompt: Answer briefly: the call reported for `Cc1ccc(-c2cn(C/C=C3\C=CN(S(=O)(=O)c4ccccc4)CC3)nn2)cc1` in this assay.
Completion: n
